Assay: PSAC antagonists in infected red cells, primary screen, cell-based, P. falciparum Indochina, OD700, 2 h (AID 1155);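 also: lysis reports solute entry through the parasite surface anion channel PSAC; channel blockers reduce lysis of infected cells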
Conditions: P. falciparum Indochina infected erythrocytes, osmotic lysis OD700; higher = more signal, called active from +8 up or from −8 down
Hi all, reminder that labels come from z-score, split as bottom bin: < 0.4; middle bin: ≥ 0.4 and < 0.9; top bin: ≥ 0.9

[[record]]
compound = "Cc1ccc(S[C@]2(C(=O)NCC(C)C)CC(=O)N(Cc3ccccc3Cl)[C@@H]2c2ccc(CO)cc2I)cc1"
cat = "middle bin"

[[record]]
compound = "CN(C)CCCCNC(=O)[C@H]1C[C@H]2C(=O)N3CCC[C@H]3C(=O)N2[C@H]1c1ccc(O)cc1"
cat = "bottom bin"

[[record]]
compound = "CCOC(=O)[C@H]1C/C=C/C[C@H](C(=O)OCC)C(=O)O[C@H]2[C@@H](OC)O[C@H](CO)[C@@H](OC(=O)CCc3ccccc3)[C@@H]2OC1=O"
cat = "bottom bin"

[[record]]
compound = "C=CC[C@]12N=C(c3ccc(OCCCO)cc3)O[C@H]1c1ccccc1N(C)C2=O"
cat = "top bin"

[[record]]
compound = "C=CCOC(=O)[C@@H]1[C@H]2C(=O)O[C@H](c3ccccc3)[C@H](c3ccccc3)N2[C@H](c2ccc(OCCOC(=O)[C@H]3C[C@H]4C(=O)N[C@@H](CCCCN(C)C)C(=O)N4[C@H]3c3cccc(OCCO)c3)cc2)[C@@]12C(=O)Nc1ccc(I)cc12"
cat = "top bin"

[[record]]
compound = "CCOC(=O)C[C@H]1[C@H](OC(=O)c2ccc(-c3ccccc3)cc2)[C@@H](NC(=O)C2CCCCC2)c2cc(OCCCO)ccc2N1C(=O)c1ccccc1"
cat = "middle bin"

[[record]]
compound = "O=C(NC1CC1)[C@@H]1c2ccccc2C(=O)N(Cc2ccccc2)[C@H]1c1ccc(CO)cc1"
cat = "bottom bin"

[[record]]
compound = "CON(C)C(=O)C=C1C[C@@H](c2cccc(Cl)c2)O[C@@H](c2cccc(Cl)c2)O1"
cat = "top bin"

[[record]]
compound = "CC(C)(C)N1CC=CC23O[C@@H]4C=CCOC(=O)[C@@H]4[C@H]2C(=O)N(CCCO)[C@@H]3C1=O (some centres not stated)"
cat = "bottom bin"

[[record]]
compound = "C=CCC(OC(C)=O)[C@@H]1[C@@H](N(Cc2cc3ccccc3o2)C(=O)c2ccc(C)cc2)c2cc(OCCCO)ccc2N1C(=O)Cc1ccc2ccccc2c1 (some centres not stated)"
cat = "middle bin"

[[record]]
compound = "C=CCC(OC(C)=O)[C@@H]1[C@@H](N(Cc2ccc(-c3ccccc3)cc2)C(=O)c2cccc3ccccc23)c2cc(OCCCO)ccc2N1C(=O)Cc1ccc2ccccc2c1 (some centres not stated)"
cat = "bottom bin"

[[record]]
compound = "COC(=O)[C@@]1(Cc2ccc(OC)cc2)[C@H]2c3cc(C(=O)N(C)C)n(CCc4c[nH]c5ccc(O)cc45)c3C[C@H]2CN1C(=O)c1ccccc1"
cat = "top bin"

[[record]]
compound = "O=C1O[C@@H](c2ccccc2)[C@@H](c2ccccc2)N2[C@@H](c3ccc(O)cc3)[C@]3(C(=O)Nc4ccc(C#CC5=CCCCC5)cc43)[C@@H](C(=O)N3CCN(c4ncccn4)CC3)[C@H]12"
cat = "bottom bin"

[[record]]
compound = "COC(=O)[C@@]1(Cc2ccccc2)[C@H]2c3cc(C(=O)N4CCCC4)n(Cc4cc(F)cc5c4OCOC5)c3C[C@H]2CN1C(=O)c1ccccc1"
cat = "middle bin"

[[record]]
compound = "CC(C)CCC[C@@H](C)[C@H]1CC[C@@]2(C)C3=C(CC[C@]12C)[C@@]1(C)CC[C@H](OC(=O)c2ccc(Br)cc2)C(C)(C)C1CC3 (some centres not stated)"
cat = "bottom bin"

[[record]]
compound = "COCCCNC(=O)[C@@H]1c2ccccc2C(=O)N(Cc2ccccc2C(F)(F)F)[C@H]1c1ccc(CO)cc1"
cat = "bottom bin"

[[record]]
compound = "CC[C@@H]1[C@H]2C3C(=O)N(CC)C(=O)C3CC(=O)[C@H]2[C@H](c2ccc(C)cc2)N1S(=O)(=O)c1ccc(C)cc1 (some centres not stated)"
cat = "top bin"

[[record]]
compound = "NC(=O)NCC#Cc1ccc2c(c1)[C@]1(C(=O)N2)[C@H](c2ccc(O)cc2)N2[C@H](c3ccccc3)[C@H](c3ccccc3)OC(=O)[C@H]2[C@@H]1C(=O)Nc1nc2ccccc2s1"
cat = "top bin"

[[record]]
compound = "COc1ccc([Si](C)(C)[C@H]2[C@H](CCn3cc([C@H](O)c4ccccc4)nn3)O[C@@]3(C(=O)N(Cc4ccc(N5CCC5=O)cc4)c4ccccc43)[C@@H]2C)cc1"
cat = "top bin"

